Reported normalized growth by item:
Test: chemical genetic growth profiling, strain panel (AID 1159580);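 further: tested at 20 µM; growth read once vehicle control cultures reached saturation at 30 °C; 1 = growth at the plate median or of vehicle wells; lower values mean less growth of the strain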
Settings: S. cerevisiae deletion strains, growth OD, locus YNL020C, strain ARK1, active compounds read low
Hit rate of the full screen: of about 5,500 compounds, about 2,000 (36%) were called active. Not shown: some 18% with an inconclusive outcome. Some of the results follow.
API note: the answer field is a bare number with no unit suffix.

Worked set:
Cc1ccc(/C=C2\CSc3ccc(F)cc3C2=O)cc1 :: 0.915
N#CC(C#N)=C(SCc1c(Cl)cccc1Cl)SCc1c(Cl)cccc1Cl :: 0.987
Nc1ccccc1SCc1c(Cl)cccc1Cl :: 0.891
O=C(NNc1ccccc1F)c1ccno1 :: 0.929
O=S(=O)(Nc1cccc2nsnc12)c1cc(Cl)sc1Cl :: 0.953

Input: I have this molecule here, "Cc1nnsc1C(=O)NNc1c(Cl)cccc1Cl" , and I need its recorded normalized growth.
Output: 0.946

Input: What normalized growth value was documented for this molecule, "O=c1c(Sc2ccc(Cl)cc2)c(Sc2ccc(Cl)cc2)c1=O" ?
Output: 0.196

Input: Form field: reported normalized growth of "Cc1cc(NNC(=O)c2ccccc2Cl)nc2c1c(C)nn2C"
Output: 0.973

###

Reported values of normalized growth for individual entries
Assay: chemical genetic growth profiling, strain panel (AID 1159580);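 further: tested at 20 µM; growth read once vehicle control cultures reached saturation at 30 °C; 1 = growth at the plate median or of vehicle wells; lower values mean less growth of the strain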
Conditions: S. cerevisiae deletion strains, growth OD, locus YER167W, strain BCK2, active compounds read low
Out of some 5,500 compounds screened, about 2,000 (36%) were called active. Not shown: some 18% with an inconclusive outcome. The list shows a part of the results.
Please reply with the value in numeric form only.

CCC(=O)O[C@H]1[C@H](O[C@@H]2[C@@H](C)[C@H](O[C@H]3C[C@@](C)(OC)[C@@H](O)[C@H](C)O3)[C@@H](C)C(=O)O[C@H](CC)[C@@](C)(O)[C@H](O)[C@@H](C)C(=O)[C@H](C)C[C@@]2(C)O)O[C@H](C)C[C@@H]1N(C)C :: 0.971

Next compound, please.
Input: Request the reported normalized growth associated with "COC1=C(OC)C(=O)C(C/C=C(\C)CC/C=C(\C)CC/C=C(\C)CC/C=C(/C)CC/C=C(\C)CC/C=C(\C)CC/C=C(\C)CC/C=C(\C)CC/C=C(\C)CCC=C(C)C)=C(C)C1=O"
Output: 1

###

Test: chemical genetic growth profiling, strain panel (AID 1159580);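 further: tested at 20 µM; growth read once vehicle control cultures reached saturation at 30 °C; 1 = growth at the plate median or of vehicle wells; lower values mean less growth of the strain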
Conditions: S. cerevisiae deletion strains, growth OD, locus YGR252W, strain gcn5, active compounds read low
Screen size: about 5,500 compounds; about 2,000 (36%) were called active. Roughly 18% stayed inconclusive and do not appear here. The list shows a part of the results.
Form field: normalized growth (one value per entry).
The answer should be a number; do not append a unit.

O=C(O)c1c2ccccc2cc2ccccc12 :: 0.955
CN(C)C(=S)SSC(=S)N(C)C :: 0.158
CC(=O)c1c(O)c(C)c(O)c2c1oc1c(C(C)=O)c(O)c(C)c(O)c12 :: 0.906

Input: Look up normalized growth for this molecule: "COC1=C(OC)C(=O)C(C/C=C(\C)CC/C=C(\C)CC/C=C(\C)CC/C=C(/C)CC/C=C(\C)CC/C=C(\C)CC/C=C(\C)CC/C=C(\C)CC/C=C(\C)CCC=C(C)C)=C(C)C1=O"
Output: 1.02

Input: Requested read-out: normalized growth. Entry: "Cc1cc(O)c(C)c(O)c1C(=O)O"
Output: 0.926

Input: Which measured normalized growth value corresponds to "Cc1cc(O)c(C=O)c(O)c1C(=O)O" ?
Output: 1

Input: Could you share which normalized growth value was measured for CCN(CC)CCCC(C)Nc1c2ccc(Cl)cc2nc2ccc(OC)cc12 (stereo unspecified) ?
Output: 0.643

Input: Fill in: normalized growth of "CN(C)CC/C=C1\c2ccccc2Sc2ccc(Cl)cc21" is ___
Output: 0.542

Input: Name the recorded normalized growth for N=c1ccn2c(n1)O[C@@H]1C2O[C@H](CO)[C@H]1O (stereo partly specified) .
Output: 0.988

Input: Consider the molecule "CCOC(=O)c1c(C)cc(O)c(C=O)c1O" and give its measured normalized growth.
Output: 0.303

Input: I have this molecule here, "O=C(O)c1cc2ccccc2[nH]1" , and I need its recorded normalized growth.
Output: 0.984
